Hey, just so you know, these numbers are from ChEMBL document CHEMBL1201862.

// reported AC50 for each item listed
# Assayed system: Cytochrome P450 3A4 (Homo sapiens);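 also: confirmatory qHTS run detecting inhibitors and substrates of CYP3A4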
# Sequence (P08684 whole entry): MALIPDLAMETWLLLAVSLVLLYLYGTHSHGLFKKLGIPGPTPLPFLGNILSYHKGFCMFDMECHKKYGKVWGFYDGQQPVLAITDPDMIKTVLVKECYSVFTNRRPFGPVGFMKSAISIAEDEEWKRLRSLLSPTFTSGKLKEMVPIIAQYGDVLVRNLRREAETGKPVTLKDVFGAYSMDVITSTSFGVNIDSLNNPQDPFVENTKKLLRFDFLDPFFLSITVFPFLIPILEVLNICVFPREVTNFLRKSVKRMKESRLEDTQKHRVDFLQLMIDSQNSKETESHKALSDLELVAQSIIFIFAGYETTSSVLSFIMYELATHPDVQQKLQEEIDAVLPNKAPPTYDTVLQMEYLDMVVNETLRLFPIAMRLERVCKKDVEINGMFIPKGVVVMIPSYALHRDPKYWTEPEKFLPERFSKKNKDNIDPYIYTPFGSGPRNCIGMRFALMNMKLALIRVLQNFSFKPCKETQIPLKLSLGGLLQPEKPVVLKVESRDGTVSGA
# Experimental context: Potency

>  <Compound>
CC1CCC2C(=O)N3C(CCC(C)C3c3ccccc3Br)C(=O)N2C1c1ccc(C#CCN(C)C)cc1 (centres undefined)

>  <AC50>
3.16 µM (inconclusive)

$$$$
>  <Compound>
CCCN1[C@@H]2C[C@@H](O)CC[C@@H]2C[C@H]1C(=O)OC

>  <AC50>
25.1 µM (inconclusive)

$$$$
>  <Compound>
c1ccc(-c2cc3c(nc2-c2ccccc2)CCNC3)cc1

>  <AC50>
5.01 µM (inconclusive)

$$$$
>  <Compound>
COc1cc(/C=C/C(=O)c2cccs2)cc(OC)c1OC

>  <AC50>
3.16 µM (inconclusive)

$$$$

* * *

# Assayed system: Fatty acid synthase (Homo sapiens, UniProt P49327)
# Sequence (P49327 whole entry, the tested form may be a part): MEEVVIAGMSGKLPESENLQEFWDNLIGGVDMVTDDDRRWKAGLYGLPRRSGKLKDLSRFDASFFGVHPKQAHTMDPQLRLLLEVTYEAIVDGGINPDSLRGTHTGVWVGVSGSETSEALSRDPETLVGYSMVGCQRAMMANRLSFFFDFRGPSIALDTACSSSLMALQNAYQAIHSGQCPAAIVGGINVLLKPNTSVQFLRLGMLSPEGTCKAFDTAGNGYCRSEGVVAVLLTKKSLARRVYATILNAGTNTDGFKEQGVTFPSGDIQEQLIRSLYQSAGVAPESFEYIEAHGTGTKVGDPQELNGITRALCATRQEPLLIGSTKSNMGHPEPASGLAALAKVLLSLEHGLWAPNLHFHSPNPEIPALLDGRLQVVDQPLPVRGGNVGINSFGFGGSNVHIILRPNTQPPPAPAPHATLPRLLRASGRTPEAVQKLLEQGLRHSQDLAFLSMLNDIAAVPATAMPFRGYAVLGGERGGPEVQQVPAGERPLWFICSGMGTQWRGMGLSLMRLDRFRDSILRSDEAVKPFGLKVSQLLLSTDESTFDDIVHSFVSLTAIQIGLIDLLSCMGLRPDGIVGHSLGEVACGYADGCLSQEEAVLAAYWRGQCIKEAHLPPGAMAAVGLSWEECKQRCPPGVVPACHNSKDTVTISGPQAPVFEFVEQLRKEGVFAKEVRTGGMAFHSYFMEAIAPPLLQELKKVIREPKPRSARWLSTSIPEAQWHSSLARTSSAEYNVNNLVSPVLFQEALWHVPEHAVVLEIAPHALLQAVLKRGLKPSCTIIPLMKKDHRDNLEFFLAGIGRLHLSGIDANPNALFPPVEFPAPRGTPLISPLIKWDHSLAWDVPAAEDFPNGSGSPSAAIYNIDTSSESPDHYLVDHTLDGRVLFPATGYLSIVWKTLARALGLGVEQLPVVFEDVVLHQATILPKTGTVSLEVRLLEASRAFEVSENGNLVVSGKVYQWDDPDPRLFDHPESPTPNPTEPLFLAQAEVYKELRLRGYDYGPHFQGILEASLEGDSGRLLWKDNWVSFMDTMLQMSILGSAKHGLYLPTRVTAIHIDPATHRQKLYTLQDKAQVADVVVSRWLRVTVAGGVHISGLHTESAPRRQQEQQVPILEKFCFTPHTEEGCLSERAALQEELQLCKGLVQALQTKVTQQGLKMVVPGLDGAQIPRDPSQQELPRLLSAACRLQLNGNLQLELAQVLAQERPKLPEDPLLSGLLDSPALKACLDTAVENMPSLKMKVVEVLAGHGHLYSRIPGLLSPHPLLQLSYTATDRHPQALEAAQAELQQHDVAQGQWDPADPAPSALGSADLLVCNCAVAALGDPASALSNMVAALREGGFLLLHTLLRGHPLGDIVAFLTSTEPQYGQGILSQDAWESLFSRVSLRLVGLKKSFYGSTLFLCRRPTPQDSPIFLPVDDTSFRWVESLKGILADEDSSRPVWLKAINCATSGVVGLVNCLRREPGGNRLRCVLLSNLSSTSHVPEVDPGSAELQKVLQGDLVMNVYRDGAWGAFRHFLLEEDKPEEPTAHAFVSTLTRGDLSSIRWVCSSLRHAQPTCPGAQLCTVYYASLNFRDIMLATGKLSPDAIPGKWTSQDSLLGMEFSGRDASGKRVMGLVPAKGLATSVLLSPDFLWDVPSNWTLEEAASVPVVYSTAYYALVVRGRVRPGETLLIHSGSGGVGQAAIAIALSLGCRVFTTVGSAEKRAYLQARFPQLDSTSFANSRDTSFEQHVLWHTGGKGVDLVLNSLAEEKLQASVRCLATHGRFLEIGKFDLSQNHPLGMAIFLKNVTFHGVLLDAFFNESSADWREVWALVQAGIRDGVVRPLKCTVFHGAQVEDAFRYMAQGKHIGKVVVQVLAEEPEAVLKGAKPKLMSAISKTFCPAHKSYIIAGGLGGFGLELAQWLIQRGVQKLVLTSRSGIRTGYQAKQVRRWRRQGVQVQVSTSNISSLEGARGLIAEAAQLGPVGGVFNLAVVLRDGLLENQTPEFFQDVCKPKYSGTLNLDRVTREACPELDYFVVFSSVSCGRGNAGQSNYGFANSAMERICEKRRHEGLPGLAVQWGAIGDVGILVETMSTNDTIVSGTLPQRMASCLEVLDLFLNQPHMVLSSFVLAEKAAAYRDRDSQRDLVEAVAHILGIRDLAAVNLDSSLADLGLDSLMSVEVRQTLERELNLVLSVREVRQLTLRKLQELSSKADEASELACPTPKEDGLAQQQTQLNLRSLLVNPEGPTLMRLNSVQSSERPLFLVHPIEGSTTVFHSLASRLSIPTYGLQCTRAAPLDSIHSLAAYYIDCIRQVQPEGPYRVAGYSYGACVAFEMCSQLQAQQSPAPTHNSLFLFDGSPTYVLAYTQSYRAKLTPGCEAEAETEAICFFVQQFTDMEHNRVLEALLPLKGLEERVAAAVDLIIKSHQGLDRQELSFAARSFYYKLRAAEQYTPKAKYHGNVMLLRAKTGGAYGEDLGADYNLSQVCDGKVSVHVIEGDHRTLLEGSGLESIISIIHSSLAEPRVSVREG
# Assay explanation: FAS thioesterase domain inhibitors, dose response, biochemical, endpoint fluorescence intensity, uHTS hits (AID 624327);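 also: fluorescence from hydrolysis of an O-methyl fluorescein acyl ester substrate by the enzyme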
# Format: functional
Calls of active or inactive are those of the source.
Labels: YES = active, NO = inactive

>  <Molecule>
CC(CCc1ccccc1)NC(=O)c1cccc([N+](=O)[O-])c1 (centres undefined)

>  <Group label>
YES

$$$$
>  <Molecule>
O=C(Cn1cnc2cc([N+](=O)[O-])ccc2c1=O)Nc1ccc2c(c1)OCO2

>  <Group label>
YES

$$$$
>  <Molecule>
CC(C)OC(=O)/C(C#N)=C/c1cn(C)c2ccccc12

>  <Group label>
YES

$$$$
>  <Molecule>
Cc1cccn2c(=O)c(/C=C(\C#N)C(=O)NCc3ccco3)c(N3CCCCCC3)nc12

>  <Group label>
NO

$$$$
>  <Molecule>
O=C(Nc1ncc2c(n1)-c1ccccc1OC2)c1cccc([N+](=O)[O-])c1

>  <Group label>
YES

$$$$
>  <Molecule>
COc1ccc2c(c1)C(=O)N1[C@H]3c4cc(Br)ccc4OC[C@@H]3[C@H](c3ccccc3)[C@]1(C)C(=O)N2

>  <Group label>
YES

$$$$
>  <Molecule>
COc1ccc(C(=O)Nn2c(SCc3cccc([N+](=O)[O-])c3)nc3ccccc3c2=O)cc1

>  <Group label>
YES

$$$$
>  <Molecule>
O=C(CCN1C(=O)/C(=C/c2ccccc2Cl)SC1=S)Nc1ccccn1

>  <Group label>
YES

$$$$
>  <Molecule>
O=C(C[C@H]1C[C@H](C(=O)N2CCOCC2)[C@@]2(CCC3CCCC3)c3[nH]c4ccc(Cl)cc4c3CCN2C1=O)NCCc1ccccn1

>  <Group label>
YES

$$$$

* * *

# Assayed system: UniProt:P38532
# Sequence (P38532 whole entry): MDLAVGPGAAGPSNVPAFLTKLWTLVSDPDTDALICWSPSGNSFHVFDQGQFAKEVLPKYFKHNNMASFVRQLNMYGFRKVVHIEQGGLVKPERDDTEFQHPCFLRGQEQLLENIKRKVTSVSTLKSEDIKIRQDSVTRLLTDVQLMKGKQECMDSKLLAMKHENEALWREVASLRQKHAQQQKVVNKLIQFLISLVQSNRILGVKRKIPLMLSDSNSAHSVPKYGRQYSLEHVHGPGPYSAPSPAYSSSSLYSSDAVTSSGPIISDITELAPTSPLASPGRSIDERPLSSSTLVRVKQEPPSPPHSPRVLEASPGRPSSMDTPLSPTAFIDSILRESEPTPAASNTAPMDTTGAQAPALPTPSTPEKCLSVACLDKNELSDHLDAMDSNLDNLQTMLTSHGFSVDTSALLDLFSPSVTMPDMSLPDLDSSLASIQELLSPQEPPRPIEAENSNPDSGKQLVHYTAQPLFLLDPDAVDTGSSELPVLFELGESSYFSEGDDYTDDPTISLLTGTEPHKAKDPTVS
# Assay explanation: HSF1 potentiators in luciferase reporter cells, confirmation, cell-based, NIH3T3, luminescence, dose retest (AID 435004);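 also: stress induced by proteasome inhibitor MG132 added 30 min after compound; luciferase reporter driven by HSF1 response element in NIH3T3 cells; actives raise luminescence as potentiators of the MG132 stress response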
# Assay type: functional
The source made the active and inactive calls.
Labels: active, inactive

>  <Molecule>
ClCC1CS/C(=N\C23CC4CC(CC(C4)C2)C3)O1 (centres undefined)

>  <Group label>
inactive

$$$$
>  <Molecule>
Cn1nnc(-c2ccc(OCc3ccccc3F)cc2)n1

>  <Group label>
inactive

$$$$
>  <Molecule>
Cn1c(CN2CCN(c3ccc(Cl)cc3)CC2)nc2ccccc21

>  <Group label>
inactive

$$$$
>  <Molecule>
C/C=C(/C)C(=O)Nc1cccc(C2=NOC3(C2)C[C@@H](C(N)=O)N(C(=O)CC)C3)c1 (some centres undefined)

>  <Group label>
inactive

$$$$
>  <Molecule>
COc1ccccc1C(=O)CSc1nnc(-c2ccco2)o1

>  <Group label>
active

$$$$
>  <Molecule>
CCCNC(=O)NC(=O)CSc1cccc(C(F)(F)F)c1

>  <Group label>
inactive

$$$$
>  <Molecule>
CCc1nc(O)c(C#N)c2c1CSC(C)(C)C2

>  <Group label>
inactive

$$$$
>  <Molecule>
c1ccc2c3c([nH]c2c1)CCNC3

>  <Group label>
inactive

$$$$
>  <Molecule>
COc1ccc(-n2cnnc2SCC(=O)N(C)C2CCS(=O)(=O)C2)cc1 (centres undefined)

>  <Group label>
inactive

$$$$
>  <Molecule>
COc1cccc(N2CCN(S(=O)(=O)c3ccc(-c4coc(C)n4)cc3)CC2)c1

>  <Group label>
inactive

$$$$
>  <Molecule>
Cc1cccc(C2C3=C(CCCC3=O)N=C3c4ccccc4C(=O)C32)c1 (centres undefined)

>  <Group label>
active

$$$$
>  <Molecule>
Nc1ncnc2c1CCC2

>  <Group label>
inactive

$$$$
>  <Molecule>
COc1cccc(N/C(SCc2cccc([N+](=O)[O-])c2)=C(/C#N)C(=O)NCc2cccs2)c1

>  <Group label>
inactive

$$$$
>  <Molecule>
Cc1ccc(C)c(NC2CCCCC2NS(=O)(=O)c2ccccc2)c1 (centres undefined)

>  <Group label>
inactive

$$$$
>  <Molecule>
CC(C)(C)OC(=O)N1CSC[C@H]1C(=O)NC[C@H](CC(=O)O)c1ccc(Cl)cc1

>  <Group label>
inactive

$$$$
>  <Molecule>
COc1ccc(-n2c(=O)c3c4c(sc3n(CC(N)=O)c2=O)CCCCC4)cc1

>  <Group label>
inactive

$$$$
>  <Molecule>
CC(C)OC(=O)c1ccc(COc2ccc3ccc(=O)oc3c2)o1

>  <Group label>
active

$$$$
>  <Molecule>
Cc1ccc(-c2nc3ccccc3[nH]2)cc1NC(=O)c1ccc2c(c1)OCO2

>  <Group label>
active

$$$$
>  <Molecule>
Cc1cccc(N=Nc2ccc(O)c3ncccc23)c1

>  <Group label>
active

$$$$
